B1: Protein piccolo, residues 1058 to 1114; numbered along this chain, Q9Y6V0 (parent)
chain: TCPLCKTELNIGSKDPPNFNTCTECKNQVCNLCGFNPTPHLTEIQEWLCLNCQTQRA

Variants of: B1
Test Details: abundance fitness (aPCA) (normalised: wild type 0, dead -1); higher = more abundant; growth selection in yeast, the domain comes from the species named
Run Conditions: Homo sapiens
Use -0.1 as the dividing line for abundance fitness, with the line itself on the 1 side and lower values as -1.

Biosequence | Classification
TCPLCKTELNIGSKAPPNFNTCTECKNQVCNLCGFNPTPHLTEIQEWLCLNCQTQRA [D15A] | -1
TCPLCKTELNIGSKDPPNFNTCTECKNQSCNLCGFNPTPHLTEIQEWLCLNCQTQRA [V29S] | -1
TCPLCKTELNIGSKDPPNFNTCTECKNQVCNLCGFNPTPHLTIIQEWLCLNCQTQRA [E43I] | -1
TCPLKKTELNIGSKDPPNFNTCTECKNQVCNLCGFNPTPHLTEIQEWLCLNCQTQRA [C5K] | -1
TCPLCKTELNIGSKDPPNFNTCHECKNQVCNLCGFNPTPHLTEIQEWLCLNCQTQRA [T23H] | -1
TCPLCKTELNIGSKDPPNFNTCTECKNQVCNLCGFNPTPHLTEIQEWLCLDCQTQRA [N51D] | -1
TCPLCKTELNIGSKDPLNFNTCTECKNQVCNLCGFNPTPHLTEIQEWLCLNCQTQRA [P17L] | 1
TCPLCKTELNIGSKDPPNFNTCTECKNQVCNLCGFNPTPHLTMIQEWLCLNCQTQRA [E43M] | -1
TCPLCKTELNIGSKDPPNFNTCTECKNQVCNLCGFNPTPHLTEIQEWLCCNCQTQRA [L50C] | 1
TCPLCKLELNIGSKDPPNFNTCTECKNQVCNLCGFNPTPHLTEIQEWLCLNCQTQRA [T7L] | -1
TCPLCKTELNIGSKDPPNFNTCTECKNQVCNLCGFNPTPHLTEIQEWLCLNCQMQRA [T54M] | -1
TCPLCKTELNIGSKDPPNFNTCTECKNQVCNLCGFNPTPHLTEIHEWLCLNCQTQRA [Q45H] | -1
TCPLCKTELNIGSKGPPNFNTCTECKNQVCNLCGFNPTPHLTEIQEWLCLNCQTQRA [D15G] | -1
TCPLCKTELNIGSKDPPNFNTCTECKYQVCNLCGFNPTPHLTEIQEWLCLNCQTQRA [N27Y] | -1
TCPLCKTELWIGSKDPPNFNTCTECKNQVCNLCGFNPTPHLTEIQEWLCLNCQTQRA [N10W] | -1
TCPLCKTELNIGSKPPPNFNTCTECKNQVCNLCGFNPTPHLTEIQEWLCLNCQTQRA [D15P] | -1
TCPLCKTELNIGSKDPPNFNTCTECKNQVCNLCGFNPTPHLTEIQENLCLNCQTQRA [W47N] | -1
TCPLCKGELNIGSKDPPNFNTCTECKNQVCNLCGFNPTPHLTEIQEWLCLNCQTQRA [T7G] | 1
TCPLCKTELNIGSKDPTNFNTCTECKNQVCNLCGFNPTPHLTEIQEWLCLNCQTQRA [P17T] | -1
TCPLCKTELNIGSKDPPNFNTCTECKNQVCNLCGFNPTPHLTEYQEWLCLNCQTQRA [I44Y] | -1
TCPLCKTELNIGSKDPPNFNTCTECKNQVCNLVGFNPTPHLTEIQEWLCLNCQTQRA [C33V] | -1
TCPLCKTELNIGSKDPPNFNTCTECKNQVCNLCGFNPTPHQTEIQEWLCLNCQTQRA [L41Q] | 1
TCPLCKTELNIGSYDPPNFNTCTECKNQVCNLCGFNPTPHLTEIQEWLCLNCQTQRA [K14Y] | -1
TCPLCKTELNIGSKDPPNFNTCTECKNQVCNLCGFNATPHLTEIQEWLCLNCQTQRA [P37A] | 1
TCPLCKTELNIGSKDPPNMNTCTECKNQVCNLCGFNPTPHLTEIQEWLCLNCQTQRA [F19M] | 1
TCPLCKTELNIGSKDPPNFNTCTECKNQVCNLCGFNPTPHATEIQEWLCLNCQTQRA [L41A] | 1
TCPLCKTELNIGSKDPPNFNTCTECKNQVCNLCGFNPTPHLTEIQEWLCLNCRTQRA [Q53R] | 1
TCPLCKTELNIGSKDPPNFNTCTECKNQYCNLCGFNPTPHLTEIQEWLCLNCQTQRA [V29Y] | 1
TCPLCKTELNIGSKDPPNFNTCTECKNQVCNLCGFNPTPHLTEIQQWLCLNCQTQRA [E46Q] | 1
TCPLCKTELNIGSKDPPNFNTCTECKNQVPNLCGFNPTPHLTEIQEWLCLNCQTQRA [C30P] | -1
TCPLCKTELNIGSKDVPNFNTCTECKNQVCNLCGFNPTPHLTEIQEWLCLNCQTQRA [P16V] | -1
TCPLCKTELNIGSKDPPNFNTCTECKNQVCNLCGFNPTPHLTEIQEWTCLNCQTQRA [L48T] | 1
TCPLCKTELNIGSKDPPWFNTCTECKNQVCNLCGFNPTPHLTEIQEWLCLNCQTQRA [N18W] | -1
TCPLCKTELNIGSKDPPNFNTCTECKHQVCNLCGFNPTPHLTEIQEWLCLNCQTQRA [N27H] | 1
TCPLCKTELNIGSKDPPNFNTCTECKNQVCNLCGFGPTPHLTEIQEWLCLNCQTQRA [N36G] | 1
TCPLCKTELNIGSKDPPNSNTCTECKNQVCNLCGFNPTPHLTEIQEWLCLNCQTQRA [F19S] | -1
TCPLCKTELNIGSKDPPNFNTCSECKNQVCNLCGFNPTPHLTEIQEWLCLNCQTQRA [T23S] | 1
TCPLCKTELNIGSKDPPNFNTCTEHKNQVCNLCGFNPTPHLTEIQEWLCLNCQTQRA [C25H] | -1
TCPLCKTELNIGSKDPPNFNTCTECKNQVCNLCGFQPTPHLTEIQEWLCLNCQTQRA [N36Q] | 1
TCPLCKTELNIGSKDPPNFNTCTECKNQVCNLCGFNPTPHLTEIQEWLCLNCWTQRA [Q53W] | -1
TCPLCKEELNIGSKDPPNFNTCTECKNQVCNLCGFNPTPHLTEIQEWLCLNCQTQRA [T7E] | 1
TCPLCKTELNIGSKDPPNFNTCTECKNQVCDLCGFNPTPHLTEIQEWLCLNCQTQRA [N31D] | 1
TCPLCKTELNIGSKDPPNFNTCTECKNQCCNLCGFNPTPHLTEIQEWLCLNCQTQRA [V29C] | 1
TCPLCKTELNIGSKDPPNFNTCTECKFQVCNLCGFNPTPHLTEIQEWLCLNCQTQRA [N27F] | -1
TCPLCKTELNIGSKDPPNFNTCTECKNQVCNLCGFEPTPHLTEIQEWLCLNCQTQRA [N36E] | 1
